Test system: Rutgers A strain house flies
experimental_protocol: topical application, percent kill after 24 hours, resistant Rutgers A strain
Assay type: in vivo, female)
particulars: Mobam 0.30 + synergist 1.5 μg/fly
Below, each entry is listed alongside its reported percent kill after 24 hours, with Mobam.
Just the number please, in %, no unit attached.

Here are 4 molecules together with their reported answers.
C#CCON=Cc1cccc([N+](=O)[O-])c1; 40
C#CCON=C(C)c1ccc(Cl)cc1; 95
C#CCOCc1c(Cl)ccc(Cl)c1Cl; 70
C#CCOCc1ccc(Cl)c(Cl)c1; 20

Please look at the following molecule next.
Provide percent kill after 24 hours, with Mobam value for the following molecule: "C#CCON=C(C)c1ccc2ccccc2c1"
38
